These data points were gathered from paper PMC5540273.

test system: GSK3B; conditions: concentration: 1 μM, replicates: in singlicate; n = 1;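 further: KINOMEscan kinase panel screen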
Kindly apply the following: Fulfilled if %Inh is less than 2%, Not fulfilled in every other case.

Cc1nnc(-c2ccc3occ(-c4ccc(S(C)=O)cc4)c3c2)[nH]1 (stereo not drawn) ... Not fulfilled
Cc1cccc(-c2cc(Nc3ccncc3)c3ccccc3n2)n1 [GSK223675] ... Not fulfilled
Cc1ccc(NC(=O)Nc2cccc(Cl)c2)cc1-c1ccc(C(=O)Nc2ccncc2)cc1 [GSK1398468] ... Not fulfilled
COc1cccc(-c2cc(-c3c[nH]nc3-c3ccccn3)ccn2)c1 [GW680338] ... Not fulfilled
Cl.Oc1ccc(-c2nc(-c3ccccc3)[nH]c2-c2ccncc2)cc1 [SB-428218] ... Fulfilled
COc1cccc(NC(=O)NC2CCN(c3ccnc(Nc4ccc(F)cc4)n3)C2)c1 (stereo not drawn) [GSK1379721] ... Not fulfilled
Cn1ccc2ncnc(Oc3ccc(NC(=O)Nc4ccccc4)cc3)c21 ... Fulfilled

Consider the record given below.
Inquiry: Please check: %Inh for Cc1c(Cn2ccn3c(=O)cc(N4CCOCC4)nc23)cccc1C(F)(F)F [GSK2289044] , strictly under 2% or not?
Reply text: Not fulfilled

* * *

tested on: p38-beta; construct: gene MAPK11; details: concentration: 1 μM, replicates: in singlicate; n = 1
Listed here: items and their measured %Inh.
Just so you know, I need the unit written after the number.

Example results:
Cc1ccc(C(=O)Nc2ccc(Nc3ccnc4cc(-c5ccccn5)ccc34)cc2O)cc1.Cl ... 0%
COc1ccc(CNC(=O)NC2CCN(c3ccnc(Nc4cc(OC)c(OC)c(OC)c4)n3)C2)cc1 (stereo not shown) ... 0%
COc1ccc(C2=C(Nc3cccc(C(=O)O)c3)C(=O)NC2=O)cc1 ... 6%

From here, focus on the item given below.
Inquiry: # returns recorded %Inh (system: p38-beta) for Fc1cc(Cl)ccc1Nc1ccnc2cc(-c3ccc(CN4CCCCC4)o3)ccc12
Reply text: 0%

* * *

Each entry below carries its reported %Inh.
system: JAK2(JH1domain-catalytic); details: concentration: 1 μM, replicates: in singlicate; n = 1
Report as a plain number; the unit % is understood.

Worked examples, 4 compounds total:
O=C(Nc1n[nH]c2nc(-c3nccs3)c(Br)cc12)C1CC1 [SB-742251] ... 36
COc1cc2ncnc(Nc3ccc4nc(-c5ccccc5)[nH]c4c3)c2cc1OC.Cl [GW282450] ... 0
Cc1cccc(-c2nc(Nc3cccc(C(N)=O)c3)c3ccccc3n2)n1 [GW876019] ... 12
Nc1nc(-c2nccs2)c(-c2ccnc3ccccc23)s1 [GW693542] ... 10

Inquiry: Quick one: %Inh of Clc1cc(Cl)cc(Nc2ccnc(Nc3cc(Cl)cc(Cl)c3)n2)c1 [GSK175726] ?
Reply text: 22

Inquiry: Requested field: %Inh. Item: COc1ccc2nc(-c3cccc(C)n3)nc(Nc3ccncc3)c2c1 [GSK204919]
Reply text: 10

Inquiry: I am curious: what %Inh value has been reported for O=C(Nc1ccccc1)Nc1cccc(Oc2ccc3nccn3n2)c1 ?
Reply text: 7

Inquiry: What %Inh value was documented for this compound, Cl.NC(=O)c1cccc(Nc2nccc(Nc3ccc(Oc4cccc(Cl)c4)c(Cl)c3)n2)c1 [GW659008] ?
Reply text: 84

Inquiry: // returns reported %Inh for input Fc1cc(Cl)ccc1Nc1ccnc2cc(I)ccc12 [GW551191]
Reply text: 1

Inquiry: # get_value(readout='%Inh', item= Cc1ccc(NC(=O)Nc2cccc(Cl)c2)cc1-c1ccc(C(=O)Nc2ccncc2)cc1 [GSK1398468] )
Reply text: 1

Inquiry: What value of %Inh has been recorded for this entry: Cc1cc(-c2ccc3c(c2)CC[C@@H](N[C@@H](C)c2ccccc2)C3)cnc1N.Cl [GW412617]
Reply text: 34
